Sourced from paper PMC5589751

Measured Kinetic solubility by item
Experiment: Kinetic solubility
Assay type: physicochemical
Settings: 5% DMSO

Compound	Kinetic solubility
CC(C)(C)OC(=O)NC(CCN1C(=O)CC1(Cc1ccccc1)C(=O)Nc1cccnc1)C(=O)Nc1cccnc1 (centres unmarked)	> 500 µM

Please examine the following record next.
The reported Kinetic solubility of the compound CC(C)(C)OC(=O)N[C@@H](CCN1C(=O)CC1(Cc1ccccc1)C(=O)OCc1ccccc1)C(=O)OCc1ccccc1 (some centres unmarked) was < 10 µM

====

Measured % Block TRPM8 50 µM by item
Target: TRPM8 (Rattus norvegicus, UniProt Q8R455)
Construct: expressed in transfected cells
Sequence (Q8R455 whole entry): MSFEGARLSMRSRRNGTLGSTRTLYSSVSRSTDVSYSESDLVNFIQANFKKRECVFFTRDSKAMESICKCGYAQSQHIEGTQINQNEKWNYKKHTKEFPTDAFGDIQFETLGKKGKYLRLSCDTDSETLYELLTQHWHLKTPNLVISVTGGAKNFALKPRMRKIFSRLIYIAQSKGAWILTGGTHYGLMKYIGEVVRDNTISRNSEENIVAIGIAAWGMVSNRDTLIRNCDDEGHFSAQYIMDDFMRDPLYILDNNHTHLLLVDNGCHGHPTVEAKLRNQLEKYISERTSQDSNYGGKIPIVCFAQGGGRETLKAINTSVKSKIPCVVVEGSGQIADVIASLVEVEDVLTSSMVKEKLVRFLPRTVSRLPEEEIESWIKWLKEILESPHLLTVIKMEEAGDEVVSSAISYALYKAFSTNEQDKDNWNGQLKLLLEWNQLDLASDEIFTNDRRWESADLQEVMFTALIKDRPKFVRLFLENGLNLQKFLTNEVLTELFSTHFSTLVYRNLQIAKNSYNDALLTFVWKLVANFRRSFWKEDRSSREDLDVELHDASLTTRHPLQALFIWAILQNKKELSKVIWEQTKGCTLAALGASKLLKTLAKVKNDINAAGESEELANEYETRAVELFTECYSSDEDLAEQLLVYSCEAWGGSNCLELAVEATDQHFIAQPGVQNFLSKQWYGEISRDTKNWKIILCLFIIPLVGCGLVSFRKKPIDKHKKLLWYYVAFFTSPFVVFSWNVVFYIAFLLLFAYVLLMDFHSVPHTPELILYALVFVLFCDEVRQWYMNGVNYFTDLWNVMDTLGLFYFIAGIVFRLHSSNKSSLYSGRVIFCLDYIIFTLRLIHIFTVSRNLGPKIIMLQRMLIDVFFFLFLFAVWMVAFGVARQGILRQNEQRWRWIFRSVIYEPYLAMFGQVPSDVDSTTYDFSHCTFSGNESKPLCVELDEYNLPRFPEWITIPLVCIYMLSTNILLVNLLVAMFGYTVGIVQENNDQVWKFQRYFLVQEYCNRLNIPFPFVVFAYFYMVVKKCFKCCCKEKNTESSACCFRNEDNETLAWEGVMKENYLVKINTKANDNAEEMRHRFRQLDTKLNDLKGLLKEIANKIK
Experiment: Ca2+ microfluorography (Fluo-4 NW), menthol-induced Ca2+ signal in HEK-CR1-TRPM8 cells
Assay type: cell-based
Details: 50 µM compound; agonist 100 µM menthol; HEK-CR1-TRPM8 cells
Kindly write the number and append the unit.

The cases that follow already have their % Block TRPM8 50 µM on record.
Compound	Result
CC(C)(C)OC(=O)NC(CCN1C(=O)CC1(Cc1ccccc1)C(=O)Nc1cccnc1)C(=O)Nc1cccnc1 (centres unmarked) [Compound 66]	64.6 ± 13.2%
CC(C)(C)OC(=O)NC(CCCN1C(=O)CC1(Cc1ccccc1)C(=O)OCc1ccccc1)C(=O)OCc1ccccc1 (centres unmarked) [Compound 46]	86.5±19.6%
CC(C)(C)OC(=O)N[C@@H](CCN1C(=O)C[C@]1(Cc1ccccc1)C(=O)NCc1ccccc1)C(=O)NCc1ccccc1 [Compound 62a]	70.0 ± 18.6%

The reported % Block TRPM8 50 µM of the compound CC1C(=O)N(CC[C@H](NC(=O)OC(C)(C)C)C(=O)OCc2ccccc2)C1(Cc1ccccc1)C(=O)OCc1ccccc1 (some centres unmarked) [Compound 45] was 100%

The reported % Block TRPM8 50 µM of the compound COC(=O)[C@H](C)NC(=O)C1(Cc2ccccc2)CC(=O)N1CCC[C@H](NC(=O)OCc1ccccc1)C(=O)OC (some centres unmarked) [Compound 58] was 50.7 ± 9.5%

====

Biological target: TRPV1 (Rattus norvegicus)
Test: Ca2+ microfluorography (Fluo-4 NW), capsaicin-induced Ca2+ signal in SH-SY5Y-TRPV1 cells
Type: cell-based
Conditions: 50 µM compound; agonist 10 µM capsaicin; SH-SY5Y-TRPV1 cells
Measured % Block TRPV1 50 µM by item
Kindly write the number and append the unit.

The cases that follow already have their % Block TRPV1 50 µM on record.
Compound	Target desc	Result
CC(C)(C)OC(=O)N[C@@H](CCN1C(=O)CC1(Cc1ccccc1)C(=O)OCc1ccccc1)C(=O)OCc1ccccc1 (some centres unmarked)	TRPV1 (Rattus norvegicus)	38.3 ± 17.9%
COC(=O)[C@H](C)NC(=O)C1(Cc2ccccc2)CC(=O)N1CCC[C@H](NC(=O)OCc1ccccc1)C(=O)OC (some centres unmarked)	TRPV1 (Rattus norvegicus)	18.3 ± 16.2%
COC(=O)[C@H](CCCN1C(=O)CC1(Cc1ccccc1)C(=O)N[C@H](C)C(=O)OC)NC(=O)OCc1ccccc1 (some centres unmarked)	TRPV1 (Rattus norvegicus)	19.4 ± 5.1%
COC(=O)C1(Cc2ccccc2)CC(=O)N1CCC(NC(=O)OCc1ccccc1)C(=O)OC(C)(C)C (centres unmarked)	TRPV1 (Rattus norvegicus)	51.7 ± 15.4%

The reported % Block TRPV1 50 µM of the compound COC(=O)C(CCCN1C(=O)CC1(Cc1ccccc1)C(=O)OC(C)(C)C)NC(=O)OCc1ccccc1 (centres unmarked) was 49.8 ± 7.2%

The reported % Block TRPV1 50 µM of the compound CC(C)(C)OC(=O)NC(CCCN1C(=O)CC1(Cc1ccccc1)C(=O)O)C(=O)O (centres unmarked) was 20.6 ± 9.2%

====

Experiment: Kinetic solubility
Assay type: physicochemical
Settings: 1% DMSO
Quantity name: Kinetic solubility

Compound	Quantity name	Result
CC(C)(C)OC(=O)NC(CCN1C(=O)CC1(Cc1ccccc1)C(=O)Nc1cccnc1)C(=O)Nc1cccnc1 (centres unmarked)	Kinetic solubility	> 100 µM

Please examine the following record next.
The reported Kinetic solubility of the compound CC(C)(C)OC(=O)N[C@@H](CCN1C(=O)CC1(Cc1ccccc1)C(=O)OCc1ccccc1)C(=O)OCc1ccccc1 (some centres unmarked) was < 10 µM

====

Target: TRPM8 (Rattus norvegicus, UniProt Q8R455)
Construct: expressed in transfected cells
Assay: Ca2+ microfluorography (Fluo-4 NW), menthol-induced Ca2+ signal in HEK-CR1-TRPM8 cells
Assay type: cell-based
Conditions: agonist 100 µM menthol; HEK-CR1-TRPM8 cells
Measured IC50 by item
Give the value in µM but do not write µM after it.

Compound	IC50 [µM]
CC(C)(C)OC(=O)N[C@@H](CCN1C(=O)C[C@@]1(Cc1ccccc1)C(=O)Nc1ccncc1)C(=O)Nc1ccncc1 [Compound 67b]	7.26
CC(C)(C)OC(=O)N[C@@H](CCN1C(=O)C[C@]1(Cc1ccccc1)C(=O)Nc1ccncc1)C(=O)Nc1ccncc1 [Compound 67a]	38.1
CC(C)(C)OC(=O)NC(CCCN1C(=O)CC1(Cc1ccccc1)C(=O)O)C(=O)O (stereo not shown) [Compound 53]	68.4

Please examine the following record next.
The reported IC50 of the compound COC(=O)C(CCN1C(=O)CC1(Cc1ccccc1)C(=O)OC)NC(=O)OC(C)(C)C (stereo not shown) [Compound 39] was 50.2

====

Measured % Block TRPM8 50 µM by item
Biological target: TRPM8 (Rattus norvegicus)
Construct: expressed in transfected cells
Experiment: Ca2+ microfluorography (Fluo-4 NW), menthol-induced Ca2+ signal in HEK-CR1-TRPM8 cells
Type: cell-based
Conditions: 50 µM compound; agonist 100 µM menthol; HEK-CR1-TRPM8 cells
Protocol: All compounds were tested at two different concentrations (50 and 5 µM) on TRPM8 and TRPV1 channels stably expressed in HEK and SH-SY5Y cell lines, respectively. The agonist induced intracellular Ca^2+ signals were measured using a fluorescent Ca^2+ indicator, in the absence and in the presence of test compounds. […] The obtained results were compared to those of 68 (AMTB, TRPM8 antagonist) and ruthenium red (TRPV1 antagonist). The IC50 values for the assay on TRPM8 were also calculated. […]
Give the value in % but do not write % after it.

The cases that follow already have their % Block TRPM8 50 µM on record.
Molecule	Target desc	% Block TRPM8 50 µM (%)
Cc1cccc(COc2ccccc2C(=O)N(CCCN)Cc2cccs2)c1 [Compound 68, reference compound]	TRPM8 (Rattus norvegicus)	100
CC(C)(C)OC(=O)N[C@@H](CCN1C(=O)CC1(Cc1ccccc1)C(=O)OCc1ccccc1)C(=O)OCc1ccccc1 (stereo partly drawn)	TRPM8 (Rattus norvegicus)	96.3

The reported % Block TRPM8 50 µM of the molecule CC(C)(C)OC(=O)NC(CCCN1C(=O)CC1(Cc1ccccc1)C(=O)O)C(=O)O (stereo not drawn) was 40.9

The reported % Block TRPM8 50 µM of the molecule COC(=O)C1(Cc2ccccc2)CC(=O)N1CCC(NC(=O)OC(C)(C)C)C(=O)OCc1ccccc1 (stereo not drawn) was 75

The reported % Block TRPM8 50 µM of the molecule CC(C)(C)OC(=O)NC(CCN1C(=O)CC1(Cc1ccccc1)C(=O)O)C(=O)O (stereo not drawn) was 41.7

The reported % Block TRPM8 50 µM of the molecule CNC(CCCN1C(=O)CC1(Cc1ccccc1)C(=O)NC(C)C(=O)OC)C(=O)OC (stereo not drawn) was 78.3

The reported % Block TRPM8 50 µM of the molecule COC(=O)C(CCN1C(=O)CC1(Cc1ccccc1)C(=O)OC)NC(=O)OC(C)(C)C (stereo not drawn) was 49.2

The reported % Block TRPM8 50 µM of the molecule COC(=O)[C@H](CCCN1C(=O)CC1(Cc1ccccc1)C(=O)N[C@H](C)C(=O)OC)NC(=O)OCc1ccccc1 (stereo partly drawn) was 36.2

The reported % Block TRPM8 50 µM of the molecule CC(C)(C)OC(=O)N[C@@H](CCN1C(=O)C[C@@]1(Cc1ccccc1)C(=O)Nc1ccncc1)C(=O)Nc1ccncc1 [Compound 67b] was 52.3

The reported % Block TRPM8 50 µM of the molecule COC(=O)C1(C)CC(=O)N1CCC(NC(=O)OCc1ccccc1)C(=O)OC(C)(C)C (stereo not drawn) was 21.3

The reported % Block TRPM8 50 µM of the molecule COC(=O)[C@H](C)NC(=O)[C@H](CCN1C(=O)C[C@@]1(Cc1ccccc1)C(=O)N[C@@H](C)C(=O)OC)NC(=O)OC(C)(C)C [Compound 57b] was 44.0

The reported % Block TRPM8 50 µM of the molecule COC(=O)C(C)NC(=O)C1(Cc2ccccc2)CC(=O)N1CCCC(C(=O)OC)N(C)C(=O)OCc1ccccc1 (stereo not drawn) was 71.3

====

Biological target: TRPV1 (Rattus norvegicus, UniProt O35433)
Sequence (O35433 whole entry): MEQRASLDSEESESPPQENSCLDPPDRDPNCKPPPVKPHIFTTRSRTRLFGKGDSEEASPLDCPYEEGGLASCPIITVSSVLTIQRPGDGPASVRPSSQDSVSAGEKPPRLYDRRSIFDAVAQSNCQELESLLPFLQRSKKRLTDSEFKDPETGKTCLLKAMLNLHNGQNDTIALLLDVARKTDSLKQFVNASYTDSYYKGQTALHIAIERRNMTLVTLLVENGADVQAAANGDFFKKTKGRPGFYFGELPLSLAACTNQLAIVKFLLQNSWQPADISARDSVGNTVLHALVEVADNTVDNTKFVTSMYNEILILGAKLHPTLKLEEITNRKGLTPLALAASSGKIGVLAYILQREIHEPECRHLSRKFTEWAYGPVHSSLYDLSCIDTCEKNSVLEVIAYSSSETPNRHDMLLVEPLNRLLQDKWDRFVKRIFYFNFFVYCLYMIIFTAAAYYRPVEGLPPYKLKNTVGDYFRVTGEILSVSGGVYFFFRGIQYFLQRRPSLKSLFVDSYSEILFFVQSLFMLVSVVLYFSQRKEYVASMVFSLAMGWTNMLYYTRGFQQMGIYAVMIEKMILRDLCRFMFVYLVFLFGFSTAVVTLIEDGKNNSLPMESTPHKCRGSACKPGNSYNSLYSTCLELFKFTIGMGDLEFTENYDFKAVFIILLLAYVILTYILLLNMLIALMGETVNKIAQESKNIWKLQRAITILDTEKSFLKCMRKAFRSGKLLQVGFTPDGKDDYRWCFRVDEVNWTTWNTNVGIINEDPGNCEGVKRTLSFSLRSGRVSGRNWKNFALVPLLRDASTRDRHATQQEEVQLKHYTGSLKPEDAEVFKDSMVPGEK
Experiment: Ca2+ microfluorography (Fluo-4 NW), capsaicin-induced Ca2+ signal in SH-SY5Y-TRPV1 cells
Assay type: cell-based
Details: 50 µM compound; agonist 10 µM capsaicin; SH-SY5Y-TRPV1 cells
Quantity name: % Block TRPV1 50 µM (%)
Give the value in % but do not write % after it.

Compound	% Block TRPV1 50 µM (%)
COC(=O)C1(Cc2ccccc2)CC(=O)N1CCC(NC(=O)OC(C)(C)C)C(=O)OCc1ccccc1 (centres unmarked)	42.4

The reported % Block TRPV1 50 µM of the compound COC(=O)C1(C)CC(=O)N1CCC(NC(=O)OCc1ccccc1)C(=O)OC(C)(C)C (centres unmarked) was 26.8

The reported % Block TRPV1 50 µM of the compound N.N.N.N.N.N.N.N.N.N.N.N.N.N.[Cl-].[Cl-].[Cl-].[Cl-].[Cl-].[Cl-].[O-2].[O-2].[Ru+3].[Ru+3].[Ru+4] [Ruthenium red, reference compound] was 100

The reported % Block TRPV1 50 µM of the compound CC(C)(C)OC(=O)N[C@@H](CCN1C(=O)C[C@]1(Cc1ccccc1)C(=O)Nc1ccncc1)C(=O)Nc1ccncc1 [Compound 67a] was 36.3

The reported % Block TRPV1 50 µM of the compound CC(C)(C)OC(=O)N[C@@H](CCN1C(=O)C[C@]1(Cc1ccccc1)C(=O)NCc1ccccc1)C(=O)NCc1ccccc1 [Compound 62a] was 42.5

The reported % Block TRPV1 50 µM of the compound CC(C)(C)OC(=O)N[C@@H](CCN1C(=O)C[C@@]1(Cc1ccccc1)C(=O)Nc1ccncc1)C(=O)Nc1ccncc1 [Compound 67b] was 31.7

The reported % Block TRPV1 50 µM of the compound CC(C)(C)OC(=O)NC(CCN1C(=O)CC1(Cc1ccccc1)C(=O)Nc1cccnc1)C(=O)Nc1cccnc1 (centres unmarked) was 22.8

The reported % Block TRPV1 50 µM of the compound CC(C)(C)OC(=O)NC(CCCN1C(=O)CC1(Cc1ccccc1)C(=O)NCc1ccccc1)C(=O)NCc1ccccc1 (centres unmarked) was 26.9
